target_of_assay: UniProt:Q12866
Sequence (Q12866 whole entry, looked up): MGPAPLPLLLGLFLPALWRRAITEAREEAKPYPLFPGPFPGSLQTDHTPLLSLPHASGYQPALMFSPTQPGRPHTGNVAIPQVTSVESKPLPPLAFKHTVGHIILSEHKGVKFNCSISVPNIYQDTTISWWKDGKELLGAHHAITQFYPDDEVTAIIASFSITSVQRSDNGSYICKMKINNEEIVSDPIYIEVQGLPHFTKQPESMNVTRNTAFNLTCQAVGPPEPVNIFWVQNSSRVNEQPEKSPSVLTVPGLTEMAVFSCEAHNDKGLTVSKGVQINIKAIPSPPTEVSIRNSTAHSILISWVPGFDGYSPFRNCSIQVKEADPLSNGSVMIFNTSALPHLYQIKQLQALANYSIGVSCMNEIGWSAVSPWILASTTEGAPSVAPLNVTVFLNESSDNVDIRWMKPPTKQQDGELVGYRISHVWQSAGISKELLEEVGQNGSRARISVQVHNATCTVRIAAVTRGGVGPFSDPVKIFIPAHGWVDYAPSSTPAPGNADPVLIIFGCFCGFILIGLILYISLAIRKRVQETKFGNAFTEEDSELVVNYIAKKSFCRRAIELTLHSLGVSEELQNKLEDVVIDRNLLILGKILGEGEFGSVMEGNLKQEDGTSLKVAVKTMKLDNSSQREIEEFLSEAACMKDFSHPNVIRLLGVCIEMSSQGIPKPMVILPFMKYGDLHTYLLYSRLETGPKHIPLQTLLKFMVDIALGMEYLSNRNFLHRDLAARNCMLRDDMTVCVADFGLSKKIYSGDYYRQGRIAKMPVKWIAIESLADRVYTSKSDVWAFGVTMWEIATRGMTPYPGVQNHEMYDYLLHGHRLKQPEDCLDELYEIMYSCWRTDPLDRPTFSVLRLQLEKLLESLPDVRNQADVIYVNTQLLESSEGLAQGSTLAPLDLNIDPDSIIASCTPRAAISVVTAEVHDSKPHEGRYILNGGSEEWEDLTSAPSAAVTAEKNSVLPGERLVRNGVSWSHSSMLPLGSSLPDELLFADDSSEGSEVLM
assay_text: Inhibition of FLAG-tagged MER (unknown origin) transfected in Cos-7cells assessed as phosphorylation level incubated for 1 hr by ELISA
pIC50: −log10 of the molar value.
property: pIC50

Field: example entries. Status: answers known.
{"columns": ["compound_smiles", "target_of_assay", "measurement"],
 "data": [
  ["Cc1cc(-c2c(C)nn(C)c2C)ccc1-c1nnc(N(C)Cc2ccc3ncc(-c4ccccc4)n3c2)o1", "UniProt:Q12866", 7.49],
  ["Cc1nn(C)c(C)c1-c1ccc(-c2nnc(N(C)Cc3ccc4nccn4c3)o2)cc1", "UniProt:Q12866", 6.70],
  ["Cc1cc(-c2c(C)nc(C)n2C)ccc1-c1nnc(N(C)Cc2ccc3nccn3c2)o1", "UniProt:Q12866", 6.30],
  ["Cc1cc(-c2c(C)nn(C)c2C)ccc1-c1nnc(N(C)Cc2ccc3ncc(-c4cnn(CCN(C)C)c4)n3c2)o1", "UniProt:Q12866", 7.70],
  ["Cc1cc(-c2c(C)nn(C)c2C)cnc1-c1nnc(N(C)Cc2ccc3nccn3c2)o1", "UniProt:Q12866", 6.10],
  ["Cc1cc(-c2c(C)nn(C)c2C)cnc1-c1nnc(N(C)Cc2ccc3ncc(-c4ccc(CN(C)C)cc4)n3c2)o1", "UniProt:Q12866", 7.80],
  ["Cc1cc(-c2c(C)nn(C)c2C)ccc1-c1nnc(N(C)Cc2ccc3ncc(C(=O)N(C)C)n3c2)o1", "UniProt:Q12866", 7.49],
  ["Cc1cc(-c2c(C#N)nn(C)c2C)ccc1-c1nnc(N(C)Cc2ccc3nccn3c2)o1", "UniProt:Q12866", 6.50]
]}

a = Cc1cc(-c2c(C)nn(C)c2C)cnc1-c1nnc(N(C)Cc2ccc3ncc(-c4cnn(CCN(C)C)c4)n3c2)o1
b = Cc1cc(-c2cnn(C)c2C)ccc1-c1nnc(N(C)Cc2ccc3nccn3c2)o1
c = Cc1cc(-c2c(C)nn(C)c2C)ccc1-c1nnc(N(C)Cc2ccc3nccn3c2)o1
d = Cc1cc(-c2c(C)nn(C)c2C)cnc1-c1nnc(N(C)Cc2ccc3ncc(-c4ccc(CN(C)C)cn4)n3c2)o1
e = Cc1nn(C)c(C)c1-c1ccc(-c2nnc(N(C)Cc3ccc4nccn4c3)o2)c(F)c1
Q: // smallest pIC50 at index 0, largest at the end Answer by naming the labels in the order asked.
Ans: e, a, b, c, d
(e: 6.50, a: 6.70, b: 7.10, c: 7.49, d: 7.89)

a = Cc1cc(-c2c(C)nn(C)c2C)ccc1-c1nnc(N(C)Cc2ccc3ncc(C4CCN(C)CC4)n3c2)o1
b = Cc1cc(-c2c(C)nn(C)c2C)cnc1-c1nnc(N(C)Cc2ccc3ncc(-c4cccc(CN(C)C)c4)n3c2)o1
Q: Which record shows the lower pIC50: the first, a , or the second, b ? Your answer should be the label attached to the chosen record.
Ans: a

a = Cc1cc(-c2c(C)nn(C)c2C)cnc1-c1nnc(N(C)Cc2ccc3ncc(-c4ccc(CN(C)C)nc4)n3c2)o1
b = Cc1cc(-c2c(C)nn(C)c2C)ccc1-c1nnc(N(C)Cc2ccc3ncc(-c4cnn(C)c4)n3c2)o1
Q: Between a and b , whose recorded pIC50 is greater? Your answer should be the label attached to the chosen record.
Ans: b
(b: 7.89, a: 7.00)

All values here come from BindingDB's records for doi:10.1021/acs.jmedchem.1c00920.
